Sourced from ChEMBL document CHEMBL1121386

Measured Relative activity values are reported for all entries that follow.
- Organism: Cavia porcellus
- assay.comment: Tested for analgesic activity in the guinea pig ileum preparation relative to normorphine (1)
- Format: functional
No unit in the answer, please; the number alone is enough.

{"columns": ["compound", "Relative activity"],
 "data": [
  ["CN1CCC23c4c5ccc(O)c4O[C@H]2C(=O)C=C[C@@]3(Br)C1C5 (stereo partly specified)", 0.4],
  ["CN1CCC23c4c5ccc(O)c4O[C@H]2C(=O)C=C[C@@]3([N+](=O)[O-])C1C5 (stereo partly specified)", 0.006],
  ["CN1CCC23c4c5ccc(O)c4O[C@H]2C(=O)C=C[C@@]3(Cl)C1C5 (stereo partly specified)", 0.5],
  ["CC(=O)N[C@@]12C=C[C@H](OC(C)=O)[C@@H]3Oc4c(O)ccc5c4C31CCN(C)C2C5 (stereo partly specified)", 0.6],
  ["CN1CCC23c4c5ccc(O)c4O[C@H]2[C@@H](O)C=C[C@@]3(S)C1C5 (stereo partly specified)", 0.4]
]}

What value of Relative activity has been reported for the following compound? CN1CCC23c4c5ccc(O)c4O[C@H]2[C@@H](O)C=C[C@@]3(O)C1C5 (stereo partly specified)
0.8
